B1: library; a variant is named by its letters at N, in order (parent)
chain: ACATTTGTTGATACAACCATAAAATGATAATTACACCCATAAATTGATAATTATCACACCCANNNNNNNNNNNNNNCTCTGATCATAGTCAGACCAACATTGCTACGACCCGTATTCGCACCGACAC

Variants of: B1
Assay: relative integration efficiency (T-RL orientation) vs wild-type transposon end (log2 (normalized fold change)); transposon end mutated: right end (5 bp flank + 75 bp right end); higher = more efficient transposition
Conditions: with VchCAST RNA-guided transposition machinery (E. coli BL21(DE3) host, lacZ target)
observed_property: relative integration efficiency (log2)

- var: "TAAATTGATATTGC T80A"
  value_measured: 0.0921
- var: "TAAATTGATATTGC A27T"
  value_measured: -0.915
- var: "ATTTAACTATAACG C34A"
  value_measured: -1.12
- var: "TAAATTGATATTGC T48G"
  value_measured: -0.12
- var: "TAAATTGATATTGC T40A"
  value_measured: -0.0544
- var: "ATTTAACTATAACG G46A"
  value_measured: -1.36
- var: "TAAATTGATATTGC A30C"
  value_measured: -0.623
- var: "GAAATTGATATTGC A62C"
  value_measured: -0.604
- var: "TAAATTGATATTGC T80G"
  value_measured: 0.183
- var: "TAAATTGATATTGC A43G"
  value_measured: -0.0412
- var: "TAAATACTAATTGC"
  value_measured: -0.376
- var: "TAAATTGATATTGC T51A"
  value_measured: -0.455
- var: "TAAATTGATATTGC A3G"
  value_measured: 0.00116
- var: "TAAGTTGATATTTT C59A"
  value_measured: 0.0617
- var: "TAAATTGATATTGC C37A"
  value_measured: -0.531
- var: "ATTTAACTATAACG A47G"
  value_measured: -0.679
- var: "ATTTAACTATAACG C57G"
  value_measured: -0.953
- var: "TAAATTGATCGGTC"
  value_measured: -0.277
- var: "ATAATTGATATTGC"
  value_measured: -0.135
- var: "ATTTAACTATAACG T6A"
  value_measured: -6.98
- var: "TAAATTGATATTGA"
  value_measured: 0.138
- var: "TAAATTGATATTGC A21G"
  value_measured: -0.564
- var: "ATTTAACTATAACG A21C"
  value_measured: -1.05
- var: "TAAATTGATATTGC A11C"
  value_measured: 0.342
- var: "TAAATTGATAATTA"
  value_measured: 0.000518
- var: "TAAATCGATATTGC"
  value_measured: -0.159
- var: "ATTTAACTATAACG C14G"
  value_measured: -0.937
- var: "ATTTAACTATAACG A24T"
  value_measured: -0.752
- var: "TAAATTGATATTGC A47G"
  value_measured: -0.0921
- var: "ATTTAACTATAACG A47C"
  value_measured: -0.686
- var: "TAAATTGATATTGC A49T"
  value_measured: -0.47
- var: "TAAATTGATACTGC"
  value_measured: -0.0852
- var: "TAAATTGATATTGC A33G"
  value_measured: 0.137
- var: "TAAATTGATATTGC G7C"
  value_measured: -0.529
- var: "TAAATTGATATTGC A41C"
  value_measured: -0.815
- var: "TAAATTGATATTGC A35C"
  value_measured: -0.0746
- var: "TAAATTGATATTGC T9G"
  value_measured: 0.104
- var: "TAAATTGATATTGC T54A"
  value_measured: -0.338
- var: "ATTTAACTATAACG A11G"
  value_measured: -0.569
- var: "TAAATTGATATTGC A13G"
  value_measured: 0.209
- var: "ATTTAACTATAACG T51C"
  value_measured: -1.04
- var: "ATTTAACTATAACG A56T"
  value_measured: -0.909
- var: "TAAATTGATATTCC"
  value_measured: -0.154
- var: "TAAATTGATATTGC A11G"
  value_measured: -0.0551
- var: "TAAATTGATATTGC A22T"
  value_measured: -0.215
